Reported MIC by item:
Tested on: Bacillus pumilus
assayText: Antibacterial activity against Bacillus pumilus NCIM 2327 after 24 hrs by NCCLS agar well diffusion method
Format: functional
settings: NCIM 2327, 24 h

{"columns": ["smilesData", "MIC, µg/mL"],
 "data": [
  ["O=C1NC(=O)/C(=C/c2ccc(/C=C/C(=O)c3cc(OCc4ccccc4)cc(OCc4ccccc4)c3)cc2)S1", 16],
  ["O=C1NC(=O)/C(=C/c2ccc(/C=C/C(=O)c3ccc([N+](=O)[O-])cc3)cc2)S1", 512],
  ["O=C1NC(=O)/C(=C/c2ccc(/C=C/C(=O)c3ccc(O)cc3)cc2)S1", 128],
  ["Cc1ccc(C(=O)/C=C/c2ccc(/C=C3\\SC(=O)NC3=O)cc2)cc1", 32],
  ["O=C1NC(=O)/C(=C/c2ccc(/C=C/C(=O)c3cccnc3)cc2)S1", 128],
  ["O=C1NC(=O)/C(=C/c2ccc(/C=C/C(=O)c3cc(O)ccc3O)cc2)S1", 256],
  ["O=C1NC(=O)/C(=C/c2ccc(/C=C/C(=O)c3ccccc3O)cc2)S1", 512],
  ["O=C1NC(=O)/C(=C/c2ccc(/C=C/C(=O)c3cccc(Cl)c3)cc2)S1", 64],
  ["O=C1NC(=O)/C(=C/c2ccc(/C=C/C(=O)c3ccc(O)cc3O)cc2)S1", 256],
  ["O=C1NC(=O)/C(=C/c2ccc(/C=C/C(=O)c3ccccn3)cc2)S1", 64]
]}

====

Tested on: Rattus norvegicus
assayText: Antihyperglycemic activity in streptozotocin-induced type 2 diabetic Wistar albino rat assessed as reduction in plasma glucose level at 50 mg/kg, po by glucometer
Assay type: functional
readoutName: Activity (mg/dL)

{"columns": ["smilesData", "studyTarget", "number"],
 "data": [
  ["Cc1cccc(C(=O)/C=C/c2ccc(/C=C3\\SC(=O)NC3=O)cc2)c1O", "Rattus norvegicus", 49.99],
  ["O=C1NC(=O)/C(=C/c2ccc(/C=C/C(=O)c3cccc(Cl)c3)cc2)S1", "Rattus norvegicus", 21.83],
  ["O=C1NC(=O)/C(=C/c2ccc(/C=C/C(=O)c3ccc(Cl)cc3)cc2)S1", "Rattus norvegicus", 36.17],
  ["O=C1NC(=O)/C(=C/c2ccc(/C=C/C(=O)c3ccc4c(c3)Cc3ccccc3-4)cc2)S1", "Rattus norvegicus", 52.81],
  ["COc1cccc(C(=O)/C=C/c2ccc(/C=C3\\SC(=O)NC3=O)cc2)c1", "Rattus norvegicus", 34.61],
  ["O=C1NC(=O)/C(=C/c2ccc(/C=C/C(=O)c3cccc(F)c3)cc2)S1", "Rattus norvegicus", 20.66],
  ["COc1ccc(C(=O)/C=C/c2ccc(/C=C3\\SC(=O)NC3=O)cc2)cc1", "Rattus norvegicus", 48.71],
  ["O=C1NC(=O)/C(=C/c2ccc(/C=C/C(=O)c3ccc(F)cc3)cc2)S1", "Rattus norvegicus", 33.12],
  ["O=C1NC(=O)/C(=C/c2ccc(/C=C/C(=O)c3cccs3)cc2)S1", "Rattus norvegicus", 13.71],
  ["O=C1NC(=O)/C(=C/c2ccc(/C=C/C(=O)c3cc(OCc4ccccc4)cc(OCc4ccccc4)c3)cc2)S1", "Rattus norvegicus", 30.12],
  ["O=C1NC(=O)/C(=C/c2ccc(/C=C/C(=O)c3ccccc3)cc2)S1", "Rattus norvegicus", 15.61],
  ["O=C1NC(=O)/C(=C/c2ccc(/C=C/C(=O)c3ccccn3)cc2)S1", "Rattus norvegicus", 43.72],
  ["O=C1NC(=O)/C(=C/c2ccc(/C=C/C(=O)c3ccc([N+](=O)[O-])cc3)cc2)S1", "Rattus norvegicus", 22.73],
  ["Nc1cccc(C(=O)/C=C/c2ccc(/C=C3\\SC(=O)NC3=O)cc2)c1", "Rattus norvegicus", 21.66],
  ["O=C1NC(=O)/C(=C/c2ccc(/C=C/C(=O)c3ccc(O)cc3)cc2)S1", "Rattus norvegicus", 37.12]
]}

====

Tested on: Micrococcus luteus
assayText: Antibacterial activity against Micrococcus luteus NCIM 2155 after 24 hrs by NCCLS agar well diffusion method
Assay type: functional
settings: NCIM 2155, 24 h

{"columns": ["smilesData", "valueUnit", "MIC"],
 "data": [
  ["Cc1ccc(O)c(C(=O)/C=C/c2ccc(/C=C3\\SC(=O)NC3=O)cc2)c1", "µg/mL", 512],
  ["O=C1NC(=O)/C(=C/c2ccc(/C=C/C(=O)c3ccc(Cl)cc3)cc2)S1", "µg/mL", 64],
  ["O=C1NC(=O)/C(=C/c2ccc(/C=C/C(=O)c3ccc(O)cc3O)cc2)S1", "µg/mL", 512],
  ["O=C1NC(=O)/C(=C/c2ccc(/C=C/C(=O)c3ccccc3O)cc2)S1", "µg/mL", 512],
  ["O=C1NC(=O)/C(=C/c2ccc(/C=C/C(=O)c3cccnc3)cc2)S1", "µg/mL", 128],
  ["COc1cccc(C(=O)/C=C/c2ccc(/C=C3\\SC(=O)NC3=O)cc2)c1", "µg/mL", 256],
  ["O=C1NC(=O)/C(=C/c2ccc(/C=C/C(=O)c3cc(OCc4ccccc4)cc(OCc4ccccc4)c3)cc2)S1", "µg/mL", 16]
]}
